tested on: HEK-293T; test: Multiplex assay against HEK293T; format: toxicity, cell-based; details: human, 12 h, 10 µM, compound concentration 10 uM, replicate 1
Metric: Population Mitochondria Different-Phenotype (%)
Express it in %; write the number only.

// solved cases for Population Mitochondria Different-Phenotype (%) follow
[
  {
    "Compound": "CCCOc1ccc2[nH]cc(C3=CCNCC3)c2n1.Cl",
    "Measurement Units": "%",
    "Numeric Result": 58
  },
  {
    "Compound": "CN[C@@H](C)C(=O)N[C@H](C(=O)N1CCC[C@H]1C(=O)Nc1snnc1-c1ccccc1)C1CCCCC1 [GDC-0152]",
    "Measurement Units": "%",
    "Numeric Result": 78
  }
]

Assay HEK-293T, sample Cc1onc(-c2ccccc2Cl)c1C(=O)N(C)c1ccc(Cl)cc1 , Population Mitochondria Different-Phenotype (%) read: 49
